- experiment: qHTS for Inhibitors of human tyrosyl-DNA phosphodiesterase 1 (TDP1): qHTS in cells in absence of CPT; also: nearly all actives have a fitted effect of over 55% in size; also: potency is read from the fitted curve at half-maximal effect
- run conditions: DT40 Tdp1-/- hTDP1 cells, no CPT, ATP luminescence, 48 h
In all, about 420,000 compounds went through this assay and about 64,000 (15%) were called active. Roughly 27% stayed inconclusive and do not appear here. The list is a sample of the results.
value kind: Potency

Known results for compounds:
{"compound": "CCCc1cc(=O)n2[nH]c(SCc3ccccc3)nc2n1", "value measured": "inactive"}
{"compound": "COc1ccc2[nH]c(=O)c(CNc3ccc(C)c(C)c3)cc2c1", "value measured": "8.2 µM (active)"}
{"compound": "C/C(=N\\NS(=O)(=O)c1ccc(Cl)cc1)c1ccc(NC(=O)c2ccco2)cc1", "value measured": "inactive"}
{"compound": "C#CCOCCOCCOCCNc1nc(N2CCN(C(=O)C([C@@H](C)CC)n3cc(C(N)COC(=O)C(F)(F)F)nn3)CC2)nc(N2CCN(C(=O)[C@H](CCCCN)n3cc(C(N)CC(C)C)nn3)CC2)n1 (stereo not given in full)", "value measured": "inactive"}

Notebook: COc1ccc(N(Cc2cc3cc(OC)ccc3[nH]c2=O)S(C)(=O)=O)cc1 , Potency read as inactive
